# System: Rattus norvegicus
# Experiment: In vivo Sterol lowering activity at dose as 0.10 % of the diet.
# Format: functional
Mark yes (1) only for serum sterol, percent of control values smaller than 90%; exact matches and larger values are no (0).

# Structure string, Category
rows = [
    ("CCOC(=O)c1ccc(NCCCc2ccc(N)cc2)cc1", "no (0)"),
    ("O=C(O)c1ccc(NC/C=C/c2ccccc2)cc1", "no (0)"),
    ("CCOC(=O)c1ccc(NC(=O)/C=C/c2ccc(Cl)cc2)cc1", "no (0)"),
    ("O=C(O)Cc1ccc(NCCCc2ccc(Cl)cc2)cc1", "yes (1)"),
    ("CCOC(=O)c1ccc(NC(=O)CCc2ccc(OC)cc2)cc1", "no (0)"),
    ("O=C(O)c1ccc(NCCCCCCc2ccccc2)cc1", "yes (1)"),
    ("O=C(O)c1ccc(C(=O)O)c(NCCCc2ccc(Cl)cc2)c1", "no (0)"),
    ("O=C(/C=C/c1ccc(Cl)cc1)Nc1ccc(C(=O)O)cc1", "no (0)"),
    ("O=C(CCCCCc1ccc(Cl)cc1)Nc1ccc(C(=O)O)cc1", "no (0)"),
]

----------
inhibition reference
# System under test: Sterol O-acyltransferase 1 (Rattus norvegicus) (UniProt O70536)
# Sequence (O70536 whole entry): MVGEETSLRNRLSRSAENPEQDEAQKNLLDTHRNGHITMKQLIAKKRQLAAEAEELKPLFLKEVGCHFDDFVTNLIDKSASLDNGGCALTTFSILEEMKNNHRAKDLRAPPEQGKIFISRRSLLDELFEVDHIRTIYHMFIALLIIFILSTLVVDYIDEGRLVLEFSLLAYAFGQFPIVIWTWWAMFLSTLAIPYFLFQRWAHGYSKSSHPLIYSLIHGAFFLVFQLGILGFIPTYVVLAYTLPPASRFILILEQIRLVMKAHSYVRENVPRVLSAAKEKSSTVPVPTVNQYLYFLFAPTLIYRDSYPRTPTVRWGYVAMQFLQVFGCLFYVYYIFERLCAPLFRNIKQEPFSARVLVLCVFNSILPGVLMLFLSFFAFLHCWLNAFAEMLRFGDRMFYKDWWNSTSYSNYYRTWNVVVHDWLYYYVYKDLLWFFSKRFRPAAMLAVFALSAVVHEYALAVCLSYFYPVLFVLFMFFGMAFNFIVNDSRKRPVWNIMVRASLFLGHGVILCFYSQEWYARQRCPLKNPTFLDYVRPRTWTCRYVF
# Experiment: In vitro inhibitory activity against acyl coenzyme A:cholesterol acyltransferase (ACAT)
# Parameters: concentration or dose not given beside the values
# Measurement conditions: concentration not given here
Readout name: inhibition (%)

# Molecule, Readout name, Qualifier symbol, Measured
data = [
    ("O=C(O)c1ccc(NCCCCCCCCc2ccccc2)cc1", "inhibition", "<", 35),
    ("CCCCCCCCCCOc1ccc(CNc2ccc(C(=O)O)cc2)cc1", "inhibition", "<", 35),
    ("CCOC(=O)c1ccc(NCc2ccccc2)cc1", "inhibition", "=", 45),
    ("CCOC(=O)c1cccc(NCCCc2ccc(Cl)cc2)c1", "inhibition", "=", 50),
    ("O=C(O)c1ccc(NCCCCCCCCCc2ccccc2)cc1", "inhibition", "<", 28),
    ("CCOC(=O)c1ccc(NCCCc2ccc(N)cc2)cc1", "inhibition", "=", 28),
    ("CCOC(=O)c1ccc(NCCCc2ccc(OC)cc2)cc1", "inhibition", "=", 54),
    ("CCCCCCCCC/C=C/CCCNc1ccc(C(=O)OCC)cc1", "inhibition", "<", 51),
    ("CCCCCCCCCCCCCNc1ccc(C(=O)O)cc1", "inhibition", "<", 29),
    ("COc1ccc(/C=C/C(=O)Nc2ccc(C(=O)O)cc2)cc1", "inhibition", "=", 20),
    ("CCCCCCCCCCCc1nc(CNc2ccc(C(=O)OCC)cc2)c[nH]1", "inhibition", "<", 59),
    ("C=C(CCCCCCCCCC)CCCCCNc1ccc(C(=O)OCC)cc1", "inhibition", "=", 9),
    ("CCCCCCCCCCCCCCCCNc1ccc(C(=O)O)cc1", "inhibition", "<", 53),
    ("CCOC(=O)c1ccc(NCCCc2cccc(F)c2)cc1", "inhibition", "=", 50),
    ("O=C(O)c1ccc(NCCCc2cccc(F)c2)cc1", "inhibition", "=", 18),
    ("CCOC(=O)c1ccc(NCCCc2ccc(Cl)cc2)cc1C(=O)OCC", "inhibition", "=", 54),
    ("CCOC(=O)c1ccc(NCCCCCCCCCC/C=C/c2cccs2)cc1", "inhibition", "<", 62),
    ("CC(C(=O)O)c1ccc(NCCCc2ccc(Cl)cc2)cc1 (stereo not drawn)", "inhibition", "=", 14),
    ("CCOC(=O)c1ccc(NCCCc2cccc(Cl)c2)cc1", "inhibition", "=", 79),
    ("O=C(CCc1ccc(Cl)cc1)Nc1ccc(C(=O)O)cc1", "inhibition", "=", 33),
    ("O=C(O)c1ccc(NCCCc2ccc(F)cc2)cc1", "inhibition", "=", 16),
    ("CCOC(=O)c1ccc(NCCCc2ccc([N+](=O)[O-])cc2)cc1", "inhibition", "=", 19),
    ("CCOC(=O)c1ccc(NC(=O)/C=C/c2ccc(Cl)cc2)cc1", "inhibition", "=", 51),
    ("O=C(O)c1ccc(C(=O)O)c(NCCCc2ccc(Cl)cc2)c1", "inhibition", "=", 0),
    ("O=C(O)c1ccc(N(CCCc2ccc(Cl)cc2)CCCc2ccc(Cl)cc2)cc1", "inhibition", "=", 33),
    ("C=C(CCCCCCCCCC)CCCCCNc1ccc(C(=O)O)cc1", "inhibition", "<", 71),
    ("CCOC(=O)c1ccc(NC(=O)CCCCCc2ccc(Cl)cc2)cc1", "inhibition", "=", 42),
    ("CCOC(=O)c1ccc(NCCCc2c(Cl)cccc2Cl)cc1", "inhibition", "=", 62),
    ("CCCCCCCCCC/C=C/CCCNc1ccc(C(=O)O)cc1", "inhibition", "<", 46),
    ("O=C(O)c1ccc(NCCCc2ccc(Cl)c(Cl)c2)cc1", "inhibition", "=", 19),
    ("CCOC(=O)c1ccc(NCCCCCCCCc2ccccc2)cc1", "inhibition", "<", 50),
    ("CCOC(=O)C(C)c1ccc(NCCCc2ccc(Cl)cc2)cc1 (stereo not drawn)", "inhibition", "=", 85),
    ("CCOC(=O)c1ccc(NCCCc2ccc(OCc3ccccc3)cc2)cc1", "inhibition", "=", 50),
    ("CCOC(=O)c1ccc(NCCc2cccc3ccccc23)cc1", "inhibition", "=", 9),
    ("CCOC(=O)c1ccc(NC(=O)CCc2ccc(Cl)cc2)cc1", "inhibition", "=", 30),
    ("CCCCCCCCCCCCCCCNc1ccc(C(=O)O)cc1", "inhibition", "<", 56),
    ("O=C(O)c1ccc(NC/C=C/c2ccccc2)cc1", "inhibition", "=", 0),
    ("O=C(OCC(O)CO)c1ccc(NCCCc2ccccc2)cc1 (stereo not drawn)", "inhibition", "=", 21),
]
